System: T-cells
Assay details: In vivo activity: CD25 expression on CD4+ or CD8+ T-cells of mice stimulated with anti-CD3 antibody
Condition details: 180 mpk PO BID, 2 μg anti-CD3 antibody, 24 hours

Molecule | CD8+ T-cell % CD25+
C[C@@H](Cc1nncn1C)c1cccc(N2Cc3c(cccc3C(F)(F)F)C2=O)c1 [Compound 255b] | E (E indicates <1.00)
Cn1cnnc1CC1(c2cccc(N3Cc4c(cc(CN5CCC(C)(F)CC5)cc4C(F)(F)F)C3=O)c2)COC1 | E (E indicates <1.00)

====

System: T-cell
Assay details: IL-2 secretion from T-cells co-stimulated with anti-CD3 and anti-CD28 antibody (Biological Example 2)
Assay type: cell-based, human
Condition details: Homo sapiens, T-cell, fold change over baseline; 1 μM Cbl-b inhibitor; primary human total T-cells; read-out: IL-2 secretion Anti-CD3/Anti-CD28 stimulation
Assay readout: fold induction at 1 µM

As a guide, the following entries are already answered.
Compound | Reported value
Cn1cnnc1[C@@H]1CC[C@@H]1c1cccc(N2Cc3c(cccc3C(F)(F)F)C2=O)c1 [Compound 283b] | > 7.5
CN1CCN(c2cc(C(=O)Nc3cccc(C4(Cc5nncn5C)COC4)c3)nc(C3CC3)n2)CC1 | > 7.5
C[C@H](Cc1nncn1C)c1cc(N[C@@H]2CCOC2)nc(N2Cc3c(cccc3C(F)(F)F)C2=O)c1 (stereo in doubt) | 1.01 to 2.5
CNc1cc([C@H](C)Cc2nncn2C)cc(N2Cc3c(cccc3C(F)(F)F)C2=O)n1 | 1.01 to 2.5
C[C@@H](Cc1nncn1C)c1cccc(NC(=O)c2cc(C3CC3)cc(C(F)(F)F)n2)c1 | 1.01 to 2.5

Please state, for each entry, its recorded fold induction at 1 µM.
1. C[C@H](Sc1nncn1C)c1ccc(F)c(NC(=O)c2cccc(C(F)(F)F)n2)c1 [Compound 95a]
2. C[C@H](Cc1nncn1C)c1ccnc(NC(=O)c2cccc(C(F)(F)F)n2)c1
3. Cn1cnnc1[C@@H]1C[C@@H]1c1cccc(NC(=O)c2nc3c(C(F)(F)F)cccc3[nH]2)c1
4. Cn1cnnc1CC1(c2cccc(NC(=O)c3ccnc(C(F)(F)F)n3)c2)COC1
5. C[C@H](Cc1nncn1C)c1cccc(NC(=O)c2cccc(S(C)(=O)=O)n2)c1

// result
1.01 to 2.5
2.51 to 5
1.01 to 2.5
2.51 to 5
1.01 to 2.5

Provide each entry's fold induction at 1 µM from the list below.
1. Cc1cc(C(=O)Nc2cccc([C@H](C)Sc3nncn3C)c2)nc2ccccc12
2. C[C@H](Cc1nncn1C)c1cccc(NC(=O)c2cc(O[C@@H]3CC[C@@H](O)C3)ccn2)c1 (relative stereo)
3. C[C@H](Cc1nncn1C)c1cccc(NC(=O)c2ccnc(C(F)(F)F)n2)c1
4. Cc1cc(C(=O)Nc2cccc([C@H]3C[C@H]3c3nncn3C)c2)nc(C2CC2)n1
5. Cn1cnnc1CC1(c2cccc(NC(=O)c3cc(C4CC4)nc(C4CC4)n3)c2)COC1
6. C[C@H](Sc1nncn1C)c1cccc(NC(=O)c2cc(C(F)(F)F)ccn2)c1

// result
["1.01 to 2.5", "2.51 to 5", "2.51 to 5", "2.51 to 5", "> 7.5", "1.01 to 2.5"]

====

Assay target: Cbl-b (Homo sapiens, UniProt Q13191)
Sequence (Q13191 36-427): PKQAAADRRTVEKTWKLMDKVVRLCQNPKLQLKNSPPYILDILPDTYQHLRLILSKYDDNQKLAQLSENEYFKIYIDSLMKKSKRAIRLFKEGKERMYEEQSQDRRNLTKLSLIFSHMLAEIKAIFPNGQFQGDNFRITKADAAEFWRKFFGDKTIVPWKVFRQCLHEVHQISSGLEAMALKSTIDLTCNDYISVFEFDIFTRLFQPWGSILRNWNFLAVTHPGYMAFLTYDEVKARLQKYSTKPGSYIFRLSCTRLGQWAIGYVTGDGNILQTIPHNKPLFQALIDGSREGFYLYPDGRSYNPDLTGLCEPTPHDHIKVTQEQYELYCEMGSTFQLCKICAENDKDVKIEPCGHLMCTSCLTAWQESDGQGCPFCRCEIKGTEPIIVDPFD
Assay details: Cbl-b activity assay (Cbl-b inhibition assay), TR-FRET of Cbl-b interaction with UbcH5B-Ub
Format: biochemical
Condition details: assay buffer with 100 mM NaCl, 60 nM Src kinase; read-out: Cbl-b activity IC50
Assay readout: IC50

Known results for compounds:
Compound | Assay readout | Reported value
Cn1cnnc1[C@H](F)C1(c2cccc(N3Cc4c(cc(CN5CCCC5)cc4C(F)(F)F)C3=O)c2)COC1 [Example 673b] | IC50 | < 100 nM
Cc1ccc(C(=O)Nc2cc([C@H](C)Sc3nncn3C)ccn2)nc1C1CC1 | IC50 | 301 to 1000 nM
C[C@H](Sc1nncn1C)c1cccc(N2Cc3c(cccc3C(F)(F)F)C2=O)c1 [Compound 166a] | IC50 | 100 to 300 nM
Cc1c[nH]nc1-c1cc2c(c(C(F)(F)F)c1)CN(c1cccc([C@H](C)Cc3nncn3C)c1)C2=O | IC50 | < 100 nM

// batch mode: one IC50 value per listed entry
1. Cc1cc(C(=O)Nc2cccc(C3(Cc4nncn4C)COC3)c2)nc(C2CC2)n1
2. C[C@H](Cc1nncn1C)c1cccc(NC(=O)c2n[nH]c3c2CCC3)c1

// result
["< 100 nM", "100 to 300 nM"]
